# Target or test system: KATP channels in large DRG neurons (Rattus norvegicus, UniProt P70673+Q09429)
# Construct: native KATP channels in large DRG neurons; endogenous in cells; host or cells: acutely dissociated large-diameter neurons from rat L4/L5 dorsal root ganglia (sham-operated or spinal nerve ligated animals)
# Sequence (Q09429 whole entry): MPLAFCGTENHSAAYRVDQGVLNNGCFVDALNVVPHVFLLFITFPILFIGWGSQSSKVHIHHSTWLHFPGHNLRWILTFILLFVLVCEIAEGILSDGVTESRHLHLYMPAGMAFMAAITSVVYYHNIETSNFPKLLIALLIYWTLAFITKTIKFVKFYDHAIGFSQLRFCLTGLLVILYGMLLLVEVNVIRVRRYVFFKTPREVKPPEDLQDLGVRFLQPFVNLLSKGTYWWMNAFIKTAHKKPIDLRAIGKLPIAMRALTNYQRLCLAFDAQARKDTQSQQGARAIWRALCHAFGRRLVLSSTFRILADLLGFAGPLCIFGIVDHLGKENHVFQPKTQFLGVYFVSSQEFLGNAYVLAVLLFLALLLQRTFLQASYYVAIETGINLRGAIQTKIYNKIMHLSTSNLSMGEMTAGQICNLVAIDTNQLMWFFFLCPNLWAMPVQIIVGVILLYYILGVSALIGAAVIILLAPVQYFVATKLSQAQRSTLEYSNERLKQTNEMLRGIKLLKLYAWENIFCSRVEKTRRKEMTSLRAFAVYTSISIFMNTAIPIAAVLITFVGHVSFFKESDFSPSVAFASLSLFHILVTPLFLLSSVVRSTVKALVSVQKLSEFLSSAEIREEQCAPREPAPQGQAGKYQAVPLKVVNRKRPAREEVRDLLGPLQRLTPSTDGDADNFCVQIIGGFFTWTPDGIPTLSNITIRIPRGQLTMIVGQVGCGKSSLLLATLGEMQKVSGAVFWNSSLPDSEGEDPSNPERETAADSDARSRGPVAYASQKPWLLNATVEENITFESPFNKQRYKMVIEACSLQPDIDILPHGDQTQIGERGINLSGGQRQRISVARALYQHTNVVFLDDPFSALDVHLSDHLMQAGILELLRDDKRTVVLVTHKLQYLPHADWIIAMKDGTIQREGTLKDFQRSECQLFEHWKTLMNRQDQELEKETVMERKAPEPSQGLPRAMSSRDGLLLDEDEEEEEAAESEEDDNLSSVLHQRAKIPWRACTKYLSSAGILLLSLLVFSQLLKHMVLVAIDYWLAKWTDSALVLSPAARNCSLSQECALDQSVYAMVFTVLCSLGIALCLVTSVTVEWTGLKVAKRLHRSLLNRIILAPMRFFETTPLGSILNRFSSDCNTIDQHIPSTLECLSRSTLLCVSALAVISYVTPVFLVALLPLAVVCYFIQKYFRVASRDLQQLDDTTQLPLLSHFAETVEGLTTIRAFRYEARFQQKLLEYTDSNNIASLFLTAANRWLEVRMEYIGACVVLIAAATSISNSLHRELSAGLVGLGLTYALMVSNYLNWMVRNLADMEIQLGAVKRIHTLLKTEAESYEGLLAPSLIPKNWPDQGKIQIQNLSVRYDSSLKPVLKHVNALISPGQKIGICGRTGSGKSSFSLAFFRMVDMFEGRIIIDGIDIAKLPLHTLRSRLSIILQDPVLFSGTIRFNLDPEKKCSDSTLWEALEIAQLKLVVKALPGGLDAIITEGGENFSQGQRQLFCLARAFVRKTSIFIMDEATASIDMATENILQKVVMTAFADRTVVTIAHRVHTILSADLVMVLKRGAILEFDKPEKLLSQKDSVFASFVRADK
# Sequence (P70673 whole entry): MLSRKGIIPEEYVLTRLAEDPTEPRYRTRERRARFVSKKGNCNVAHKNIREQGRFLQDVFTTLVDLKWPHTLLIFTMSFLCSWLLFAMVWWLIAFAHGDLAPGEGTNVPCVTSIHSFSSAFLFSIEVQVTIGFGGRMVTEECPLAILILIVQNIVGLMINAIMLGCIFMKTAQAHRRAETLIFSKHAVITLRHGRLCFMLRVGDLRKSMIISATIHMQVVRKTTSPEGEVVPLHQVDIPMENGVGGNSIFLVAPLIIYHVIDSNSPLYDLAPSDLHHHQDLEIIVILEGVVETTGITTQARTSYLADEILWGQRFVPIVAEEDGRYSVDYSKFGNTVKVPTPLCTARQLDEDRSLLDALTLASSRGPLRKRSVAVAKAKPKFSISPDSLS
# Method: Excised inside-out (cell-free) patch-clamp recording of KATP channel activity
# Type: biochemical
# Measurement context: absence of SNAP; SS neurons; n = 7; read-out: IC50 value for [ATP]i
Endpoint label: IC50 (µM)
Please respond with the number in µM and leave the unit unwritten.

// query IC50 value for entry Nc1ncnc2c1ncn2[C@@H]1O[C@H](COP(=O)(O)OP(=O)(O)OP(=O)(O)O)[C@@H](O)[C@H]1O
12.8

This collection of values is drawn from paper PMC2673211.
